Data origin, for the record: patent US11203613B2

- target under test: Human Constitutive (Hu C-20S) β5 Active Subunit (Homo sapiens)
- test method notes: IC50 determination, human constitutive 20S proteasome β5c (suc-LLVY-AMC hydrolysis)
- Format: biochemical
- experimental conditions: Table 3; IC50 against human constitutive β5 active subunit; read-out: Hu-C20S β5
property name: IC50 (µM)
Numbers only, in µM.

These solved cases illustrate the format of a correct answer.
compound	IC50 / µM
C[C@H](NC(=O)[C@H](CC(=O)N1CCCC[C@@H]1C)NC(=O)CC1CCOCC1)c1ncc(Cc2ccccc2)[nH]1	13.5
Cc1cc(C(=O)N[C@@H](CC(=O)N2CCC[C@@H]2c2ccccc2)C(=O)NC(C)c2nc3ccccc3[nH]2)no1 (some centres unmarked)	7.5

Below is a list of compounds. For each, state its recorded IC50.
1. CC(C)CCC(=O)N[C@@H](CC(=O)N(C)C(C)C)C(=O)N[C@@H](C)c1ncc(-c2ccc(F)cc2F)[nH]1
2. CC(C)CCC(=O)N[C@@H](CC(=O)N1CCCC1)C(=O)N[C@@H](C)c1ncc(-c2ccc(F)cc2F)[nH]1
3. CC[C@H]1CCCCN1C(=O)C[C@H](NC(=O)N1CCCCC1)C(=O)N[C@@H](C)c1nc2c(F)cccc2[nH]1
4. Cc1ncc(C(=O)N[C@@H](CC(=O)N2CCCC[C@@H]2C)C(=O)N[C@@H](C)c2nc3c(F)cccc3[nH]2)s1
5. CC[C@H]1CCCCN1C(=O)C[C@H](NC(=O)C1CC1C(C)C)C(=O)N[C@@H](C)c1nc2c(F)cccc2[nH]1 (some centres unmarked)
6. Cc1cc(C(=O)N[C@@H](CC(=O)N2CCCCC2C)C(=O)N[C@@H](C)c2ncc(-c3ccccc3)[nH]2)no1 (some centres unmarked)
7. C[C@H](NC(=O)[C@H](CC(=O)N1CCCC[C@@H]1C)NC(=O)C1CC2(COC2)C1)c1nc2cccc(F)c2[nH]1

# output
1. 14.9
2. 10.4
3. 3
4. 4.5
5. 37.7
6. 11
7. 13.8

Below is a list of compounds. For each, state its recorded IC50.
1. C[C@H](NC(=O)[C@H](CC(=O)N1CCCC[C@@H]1C)Nc1nc2ccccc2o1)c1ncc(-c2ccc(F)cc2F)[nH]1
2. CC[C@H]1CCCCN1C(=O)C[C@H](NC(=O)c1cncs1)C(=O)N[C@@H](C)c1nc2c(F)cccc2[nH]1
3. CC[C@H]1CCCCN1C(=O)C[C@H](NC(=O)c1cnc(C)s1)C(=O)N[C@@H](C)c1nc2c(F)cccc2[nH]1
4. C[C@H](NC(=O)[C@H](CC(=O)N1CCC[C@H]1c1ccccc1)NC(=O)C1CC2(COC2)C1)c1nc2cccc(F)c2[nH]1
5. CC[C@H]1CCCCN1C(=O)C[C@H](NC(=O)CCC(C)C)C(=O)N[C@@H](C)c1ncc(-c2ccc(F)cc2F)[nH]1

# output
7.3
19.2
9.5
6.8
4.4

====

- target under test: Mtb20SOG (Mycobacterium tuberculosis, UniProt P9WHT9)
- Sequence (P9WHT9 58-291): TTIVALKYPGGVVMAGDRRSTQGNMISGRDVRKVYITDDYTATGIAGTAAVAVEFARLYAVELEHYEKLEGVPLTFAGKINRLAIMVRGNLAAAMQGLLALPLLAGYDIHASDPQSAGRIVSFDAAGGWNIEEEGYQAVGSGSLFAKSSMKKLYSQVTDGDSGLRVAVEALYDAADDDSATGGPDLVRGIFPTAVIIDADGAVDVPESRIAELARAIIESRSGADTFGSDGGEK
- test method notes: biochemical
- experimental conditions: Table 2; several values in a cell are repeat determinations
Please provide measured IC50 for the entries that follow.
Numbers only, in nM.

These solved cases illustrate the format of a correct answer.
compound	property name	unit annotation	numeric readout
CC(C)CCC(=O)N[C@@H](CC(=O)N(C)C(C)C)C(=O)N[C@@H](C)c1ncc(-c2ccc(F)cc2F)[nH]1 [CF-503200]	IC50	nM	919
C[C@H](NC(=O)[C@H](CC(=O)N1CCCC[C@@H]1C)NS(=O)(=O)c1ccccc1)c1ncc(-c2ccc(F)cc2F)[nH]1 [CF-503142]	IC50	nM	650
CC(C)CCC(=O)N[C@@H](CC(=O)N1CCCC[C@@H]1C)C(=O)N[C@@H](C)c1ncc(-c2ccc(F)cc2F)[nH]1 [CF-503198]	IC50	nM	1570
C[C@H](NC(=O)[C@H](CC(=O)N1CCCC[C@@H]1C)NC(=O)CCC1CC1)c1ncc(-c2ccc(F)cc2F)[nH]1 [CF-503204]	IC50	nM	98
C[C@H](NC(=O)[C@H](CC(=O)N1CCCC[C@@H]1C)NC(=O)[C@H]1C[C@@H]1c1ccccc1)c1nc2c(F)cccc2[nH]1 [drawing 477]	IC50	nM	166

Below is a list of compounds. For each, state its recorded IC50.
1. CC(C)c1noc(N[C@@H](CC(=O)N2CCCC[C@@H]2C)C(=O)N[C@@H](C)c2ncc(-c3ccc(F)cc3F)[nH]2)n1 [CF-503477]
2. CC(C)CCC(=O)N[C@@H](CC(=O)N1CCCC[C@@H]1C)C(=O)NCc1nc2ccccc2[nH]1 [CF-503193]
3. CCS(=O)(=O)N[C@@H](CC(=O)N1CCCC[C@@H]1C)C(=O)N[C@@H](C)c1ncc(-c2ccc(F)cc2F)[nH]1 [CF-503144]
4. Cc1cc(C(=O)N[C@@H](CC(=O)N2CCCC[C@@H]2C)C(=O)N[C@@H](C)c2nc3ccccc3[nH]2)no1 [CF-503148]
5. Cc1cc(C(=O)N[C@@H](CC(=O)N2CCCCC2C)C(=O)N(C)[C@@H](C)C(=O)NCc2ccc(F)cc2F)no1 (stereo partly drawn)

# output
2050
647
1900
906
10000

====

Please provide measured IC50 for the entries that follow.
- target under test: Human Constitutive (Hu C-20S) β5 Active Subunit (Homo sapiens, UniProt P28074)
- test method notes: IC50 determination, human constitutive 20S proteasome β5c (suc-LLVY-AMC hydrolysis)
- Assay type: biochemical
- experimental conditions: Table 3; IC50 against human constitutive β5 active subunit; read-out: Hu-C20S β5
Give bare numbers, in µM.

These solved cases illustrate the format of a correct answer.
compound	numeric readout
Cc1cc(C(=O)N[C@@H](CC(=O)N2CCCC[C@@H]2C)C(=O)N[C@@H](C)c2ncc(-c3ccc(F)cc3F)[nH]2)no1 [CEN-94]	5.5
C[C@H](NC(=O)[C@H](CC(=O)N1CCCC1)NC(=O)CCC(C)(C)C)c1ncc(-c2ccc(F)cc2F)[nH]1 [CEN-83]	10.3
CC[C@H]1CCCCN1C(=O)C[C@H](NC(=O)CCC(C)(C)C)C(=O)N[C@@H](C)c1nc2ccccc2[nH]1 [CEN-29]	6.9

Proceed to the following item.
# input // lookup IC50 for CC(C)CCC(=O)N[C@@H](CC(=O)N1CCCC[C@@H]1C)C(=O)N[C@@H](C)c1ncc(-c2ccc(F)cc2F)[nH]1 [CEN-88]
# output 15.1

====

- target under test: Human Constitutive (Hu C-20S) β5 Active Subunit (Homo sapiens)
- test method notes: IC50 determination, human constitutive 20S proteasome β5c (suc-LLVY-AMC hydrolysis)
- Format: biochemical
- experimental conditions: Table 3; IC50 against human constitutive β5 active subunit; read-out: Hu-C20S β5
pIC50: −log10 of the molar value.
Please enter true (1) where pIC50 is greater than or equal to 5, and false (0) where it is lower.

molecule	target under test	assigned class
CC[C@H]1CCCCN1C(=O)C[C@H](Nc1nc2ccccc2o1)C(=O)N[C@@H](C)c1nc2c(F)cccc2[nH]1 [CEN-16]	Human Constitutive (Hu C-20S) β5 Active Subunit (Homo sapiens)	true (1)
C[C@H](NC(=O)[C@H](CC(=O)N1CCCC[C@@H]1C)NC(=O)C1CC2(CCC2)C1)c1nc2c(F)cccc2[nH]1 [CEN-42]	Human Constitutive (Hu C-20S) β5 Active Subunit (Homo sapiens)	false (0)
CC[C@H]1CCCCN1C(=O)C[C@H](NC(=O)N1CCOCC1)C(=O)N[C@@H](C)c1nc2c(F)cccc2[nH]1 [CEN-14]	Human Constitutive (Hu C-20S) β5 Active Subunit (Homo sapiens)	true (1)

# input # bool: pIC50 of Cc1cc(C(=O)N[C@@H](CC(=O)N2CCC[C@@H]2c2ccccc2)C(=O)N[C@@H](C)c2ncc(-c3ccc(F)cc3F)[nH]2)no1 [CEN-115] >= 5
# output false (0)

# input # bool: pIC50 of CC(C)CCC(=O)N[C@@H](CC(=O)N1CCCCC1C(C)C)C(=O)N[C@@H](C)c1ncc(-c2ccc(F)cc2F)[nH]1 (stereo partly shown) [CEN-107] >= 5
# output true (1)

# input # bool: pIC50 of C[C@H](NC(=O)[C@H](CC(=O)N1CCCC[C@@H]1C)NS(=O)(=O)Cc1ccccc1)c1ncc(-c2ccc(F)cc2F)[nH]1 [CEN-112] >= 5
# output true (1)

# input # bool: pIC50 of C[C@@H](NC(=O)[C@H](CC(=O)N1CCCC[C@@H]1C)NC(=O)CCC(C)(C)C)c1nc2ccccc2[nH]1 [CEN-37] >= 5
# output false (0)

====

- target under test: Mtb20SOG (Mycobacterium tuberculosis, UniProt P9WHT9)
- test method notes: biochemical
Please provide measured IC50 for the entries that follow.
Answers are plain numbers, in nM.

compound	target under test	IC50 (nM)
CC(NC(=O)C(CC(=O)N1CCCCC1C)NC(=O)C1CC(C)(C)C1)c1nc(-c2ccc(F)cc2F)c[nH]1 (stereo not shown) [CF-503474]	Mtb20SOG (Mycobacterium tuberculosis, UniProt P9WHT9)	14
CCN(CC)C(=O)C[C@H](NC(=O)CCC(C)C)C(=O)N[C@@H](C)c1nc(-c2ccc(F)cc2F)c[nH]1 [CF-503197]	Mtb20SOG (Mycobacterium tuberculosis, UniProt P9WHT9)	1110
Cc1ccc(S(=O)(=O)N[C@@H](CC(=O)N2CCCC[C@@H]2C)C(=O)N[C@@H](C)c2ncc(-c3ccc(F)cc3F)[nH]2)cc1 [CF-503143]	Mtb20SOG (Mycobacterium tuberculosis, UniProt P9WHT9)	494

Proceed to the following item.
# input // lookup IC50 for CC(NC(=O)C(CC(=O)N1CCCCC1C)NC(=O)N(C)Cc1ccccc1)c1nc2c(F)cccc2[nH]1 (stereo not shown) [CF-503460]
# output 272
